Target protein (sequence): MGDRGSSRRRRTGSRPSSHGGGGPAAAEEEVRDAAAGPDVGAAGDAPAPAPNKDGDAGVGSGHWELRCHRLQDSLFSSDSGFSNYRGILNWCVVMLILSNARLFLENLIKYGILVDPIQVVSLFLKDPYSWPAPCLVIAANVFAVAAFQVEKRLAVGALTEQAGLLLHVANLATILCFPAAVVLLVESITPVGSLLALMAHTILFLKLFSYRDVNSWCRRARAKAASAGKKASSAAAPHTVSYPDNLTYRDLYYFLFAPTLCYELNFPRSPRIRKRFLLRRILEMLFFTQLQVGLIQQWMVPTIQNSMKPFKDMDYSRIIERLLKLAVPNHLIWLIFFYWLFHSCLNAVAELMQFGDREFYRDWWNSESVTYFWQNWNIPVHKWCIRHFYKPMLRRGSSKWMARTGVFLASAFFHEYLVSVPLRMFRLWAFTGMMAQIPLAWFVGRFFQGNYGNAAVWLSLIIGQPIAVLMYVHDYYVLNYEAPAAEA
experimental-readout: pIC50
Note on units: pIC50 is unitless, being -log10 of a concentration expressed in mol/L.

Reported pIC50, compound `Cc1cc(C(=O)Nc2ccccc2)c2ccc(-c3ccc([C@H]4CC[C@H](CC(=O)O)CC4)cc3)cc2n1` : ____
7.55

Reported pIC50, compound CC1CN(C(=O)Nc2ccc(F)cc2C(F)(F)F)c2ccc(-c3ccc([C@H]4CC[C@H](CC(=O)O)CC4)cc3)cc2O1 (single isomer, unassigned) [C-78 enantiomer A] : ____
7.10

Reported pIC50, compound `CC(C)c1ccccc1NC(=O)c1ccnc2cc(-c3ccc([C@H]4CC[C@H](CC(=O)O)CC4)cc3)ccc12` : ____
7.14

Reported pIC50, compound CCCCCCCNC(=O)N1CC(CC)Oc2cc(-c3ccc([C@H]4CC[C@H](CC(=O)O)CC4)cc3)ccc21 (stereo partly drawn) : ____
7.08

Reported pIC50, compound `O=C(O)C[C@H]1CC[C@H](c2ccc(-c3ccc4c(c3)OCCN4C(=O)Nc3ccc(F)cc3C(F)(F)F)cc2)CC1` : ____
7.70

Reported pIC50, compound `CCCc1ccccc1NC(=O)c1ccnc2cc(-c3ccc([C@H]4CC[C@H](CC(=O)O)CC4)cc3)ccc12` : ____
7.03

Reported pIC50, compound C[C@@H]1CN(C(=O)Nc2ccccc2)c2ccc(-c3ccc([C@H]4CC[C@H](CC(=O)O)CC4)cc3)cc2O1 [B-18 enantiomer A] : ____
7.37

Reported pIC50, compound CCCCCCNC(=O)N1CC(C)Oc2cc(-c3ccc([C@H]4CC[C@H](CC(=O)O)CC4)cc3)ccc21 (stereo partly drawn) : ____
7.09

Reported pIC50, compound CCc1ccccc1NC(=O)N1C[C@@H](C)Oc2cc(-c3ccc([C@H]4CC[C@H](CC(=O)O)CC4)cc3)ccc21 [C-81 enantiomer A] : ____
7.24

From: patent US20120022057A1
